B1: CPEB3 Ribozyme (parent)
chain: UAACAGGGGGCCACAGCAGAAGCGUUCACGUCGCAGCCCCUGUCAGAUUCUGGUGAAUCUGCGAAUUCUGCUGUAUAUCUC

Variants of: B1
Experiment: self-cleavage, relative activity (ratio to wild type); higher = more cleavage; in vitro, sequencing
Categorized via self-cleavage: low interval = under 0.3, middle interval = from 0.3 up to 0.6, high interval = 0.6 and over

stdin: Which self-cleavage category applies to UAACAGGGGGCUACAGCAGAAGCGUUCACGUCGCAGCCCCAGUCAGAUUCUGGUGAAUCUGCGAAUUCUGCUGUAUAUCUC [C12U U41A] here?
stdout: low interval

stdin: The entry to classify is UAACAGGGGGCCCCAGCAGAAGCGUUCGCGUCGCAGCCCCUGUCAGAUUCUGGUGAAUCUGCGAAUUCUGCUGUAUAUCUC [A13C A28G] ; which class holds it?
stdout: high interval

stdin: # bin lookup: classify UAACAGGGGGCCACAGCAGAAGCGUUCACGCCGCAGCCCCUGUCAGAUUCUGGUGAAUCUGCGAGUUCUGCUGUAUAUCUC [U31C A65G] by its self-cleavage
stdout: middle interval

stdin: Lab note: sort UAACAGGGGGCCACAGCAGAAGCGUUCACGUCGCAGCCCCUGUCAGAUUCCGGUGAAUCUGCGAAUGCUGCUGUAUAUCUC [U51C U67G] into the matching self-cleavage band.
stdout: middle interval

stdin: Quick check: band for UAACAGGGGGCAACAGCAGAAGCGUUCACGUCGCUGCCCCUGUCAGAUUCUGGUGAAUCUGCGAAUUCUGCUGUAUAUCUC [C12A A35U]
stdout: high interval

stdin: Hello team, could you let me know which band the following variant falls into: UAUCAGGGGGCCACAGCAGAAGCGUUCACGUCGCAGCCCCUGUCAGAUUCUGGUGAAUCUGCGAAUUAUGCUGUAUAUCUC [A3U C68A]
stdout: middle interval

stdin: Category lookup for the variant UAACAGGGGGCCACAGCAGAAGCGUUCACGUCGCAGCCCCUGUCGGAUUCUGGUGAAUCUGCGAAUUCUGCAGUAUAUCUC [A45G U72A]
stdout: high interval

stdin: Which self-cleavage band matches UAACAGGGGGCCACAGCAGAAGCGUUCACGUCGCAGCCCCUGUCAGGUUCUGGUGAAUCUGCGAAUUCUGCUGUAUAUUUC [A47G C79U] ?
stdout: high interval

stdin: Pick a category. Item: UAACAGGGGGCCACAGCAGAAGCGUUCACGUCGCAGCCCCUGUCAGAUUCUGGUCAAUCUGCGAAUUCUGCUGUAUACCUC [G55C U78C]
stdout: high interval

stdin: Categorize the following entry: UAACAGGGGGCCACAGCAGAAGCGUUCACGUAGCAGCCCCUGUCAGAUUCUGGCGAAUCUGCGAAUUCUGCUGUAUAUCUC [C32A U54C]
stdout: middle interval

stdin: Into which category would you place UAACAGGGGGCCACAGCAGAAGCAAUCACGUCGCAGCCCCUGUCAGAUUCUGGUGAAUCUGCGAAUUCUGCUGUAUAUCUC [G24A U25A] ?
stdout: low interval

stdin: Band for UAACAGGGGGCCACAGCAGACGCGUUCACGUCGCAGCCCCUGUCAGAUUCUGGUGAAUCUGCGUAUUCUGCUGUAUAUCUC [A21C A64U] ?
stdout: low interval

stdin: Form field 'band' for UAACAGGGGGCCACAGCAGAAGCGUUCACGUCGCAGCCCCUGUCUGAAUCUGGUGAAUCUGCGAAUUCUGCUGUAUAUCUC [A45U U48A]
stdout: low interval

stdin: Category lookup for the variant UAACAGGGGGCCACAGCUGAAGCGUUCACGUCGCAGCCCCUGUCAGAUUCUGGUGAAUCUGCGAACUCUGCUGUAUAUCUC [A18U U66C]
stdout: low interval

stdin: Please classify: CAACAGGGGGCCACAGCAGAAGCGUUCACCUCGCAGCCCCUGUCAGAUUCUGGUGAAUCUGCGAAUUCUGCUGUAUAUCUC [U1C G30C]
stdout: low interval

stdin: Returns: class label. Input: UAACAGGGGGCCACAGCAGAAGCGUUCACGUCGCAGCCCCUGUCGGAUUCUGGUCAAUCUGCGAAUUCUGCUGUAUAUCUC [A45G G55C]
stdout: high interval

stdin: For UAACAGGGGGCCAGGGCAGAAGCGUUCACGUCGCAGCCCCUGUCAGAUUCUGGUGAAUCUGCGAAUUCUGCUGUAUAUCUC [C14G A15G] , which self-cleavage bin applies?
stdout: high interval

stdin: In plain terms, what class is UAACAGGGGGCCACAGCAGAAGCGUUCACGUCGCAGCCCCAGUCAGAUUCUGGUGGAUCUGCGAAUUCUGCUGUAUAUCUC [U41A A56G] ?
stdout: low interval

stdin: Class (by measured self-cleavage) for UAACAGGGGGCCACAGCAGAAGCGUUCACGUCGCAGCCCCUGUCAGAUUAUGGUGAAUCUGCGAAUUCUGCUGUAUAUCCC [C50A U80C]
stdout: high interval

stdin: Which class is correct for the following variant? UAACAGGGGGCCACGGCAGAAGCGUUCACGUCGCAGCCCCUGUCAGAUUCUCGUGAAUCUGCGAAUUCUGCUGUAUAUCUC [A15G G52C]
stdout: high interval

stdin: In plain terms, what class is UAACAGGGGGCCACAGCAGAAGCGUUCACGUCGCAGCCCCCGUCAGAUUCUGGUGAAUCUGCGACUUCUGCUGUAUAUCUC [U41C A65C] ?
stdout: middle interval

Just for reference, the RNAGym collection of RNA variant scans (doi:10.1093/nar/gkz1192) is where these values come from.
